Where do the numbers come from? From patent US20260297080A1.

# target.under.test: CDK2/Cyclin E1 (Homo sapiens, UniProt P24941)
# procedure.text: CDK2/Cyclin E1 Biochemical Assay (TR-FRET), 0.060 mM ATP
# condition.set: 0.15 μM Rb (Ser780)-biotin substrate, pH7.0, 60 min preincubation, 120 min reaction, room temperature
metric.name: pIC50
The quantity pIC50 is defined as the negative base-10 logarithm of the molar concentration.

A selection of reference data follows.
compound="CC1(NC(=O)O[C@H]2CC[C@@H](c3cc(Nc4ccc5c(c4F)CNS5(=O)=O)n[nH]3)C2)CC1 (single isomer, unassigned) [Example 140b]" target_under_test="CDK2/Cyclin E1 (Homo sapiens, UniProt P24941)" metric_name=pIC50 observed_value=8.85
compound="O=C(NC1(CO)CC1)O[C@H]1CC[C@@H](c2cc(Nc3ccc4c(c3F)CN(C3CC3)S4(=O)=O)n[nH]2)C1 (relative stereo) [Example 360]" target_under_test="CDK2/Cyclin E1 (Homo sapiens, UniProt P24941)" metric_name=pIC50 observed_value=7.92
compound="CC(C)NC(=O)O[C@H]1CC[C@@H](c2cc(Nc3c(F)cc4c(c3F)CNS4(=O)=O)n[nH]2)C1 (relative stereo) [Example 30]" target_under_test="CDK2/Cyclin E1 (Homo sapiens, UniProt P24941)" metric_name=pIC50 observed_value=8.14
compound="CC(C)NC(=O)O[C@H]1CC[C@@H](c2cc(Nc3ccc4c(c3)CS(=O)(=O)N4)n[nH]2)C1 (single isomer, unassigned) [Example 7b]" target_under_test="CDK2/Cyclin E1 (Homo sapiens, UniProt P24941)" metric_name=pIC50 observed_value=9.05
compound="[2H]C([2H])([2H])C1c2cc(Nc3cc([C@@H]4CC[C@H](OC(=O)NC5(C)CC5)C4)[nH]n3)cc(F)c2N(C([2H])([2H])[2H])S1(=O)=O (relative stereo) [Example 287]" target_under_test="CDK2/Cyclin E1 (Homo sapiens, UniProt P24941)" metric_name=pIC50 observed_value=8.11

Requested read-out: pIC50. Entry: O=C(NC1COC1)O[C@H]1CC[C@@H](c2cc(Nc3ccc4c(c3F)CNS4(=O)=O)n[nH]2)C1 (relative stereo) [Example 149]
7.38

# iterate: CC(C)NC(=O)O[C@H]1CC[C@@H](c2cc(Nc3cc(F)c4c(c3)CS(=O)(=O)N4C3CC3)n[nH]2)C1 (relative stereo) [Example 288]
8.26

# iterate: CC(CC(F)(F)F)NC(=O)O[C@H]1CC[C@@H](c2cc(Nc3ccc4c(c3)CS(=O)(=O)N4C)n[nH]2)C1 (relative stereo) [Example 229]
8.19

# iterate: C[C@@H](CO)NC(=O)O[C@H]1CC[C@@H](c2cc(Nc3ccc4c(c3F)CN(C)S4(=O)=O)n[nH]2)C1 (relative stereo) [Example 351]
7.40

# iterate: CC(C)NC(=O)O[C@H]1CC[C@@H](c2cc(Nc3ccc4c(c3F)NS(=O)(=O)C4)n[nH]2)C1 (relative stereo) [Example 312]
8.37

# iterate: Cc1cc(Nc2cc([C@@H]3CC[C@H](OC(=O)NC(C)C)C3)[nH]n2)cc2c1S(=O)(=O)NC2 (relative stereo) [Example 26]
8.70

# iterate: CC1(NC(=O)O[C@H]2CC[C@@H](c3cc(Nc4ccc5c(c4F)CN(C4CC4)S5(=O)=O)n[nH]3)C2)CC1 (single isomer, unassigned) [Example 119a]
8.60

###

# target.under.test: CDK1/Cyclin B1 (Homo sapiens)
# Sequence (P06493 whole entry): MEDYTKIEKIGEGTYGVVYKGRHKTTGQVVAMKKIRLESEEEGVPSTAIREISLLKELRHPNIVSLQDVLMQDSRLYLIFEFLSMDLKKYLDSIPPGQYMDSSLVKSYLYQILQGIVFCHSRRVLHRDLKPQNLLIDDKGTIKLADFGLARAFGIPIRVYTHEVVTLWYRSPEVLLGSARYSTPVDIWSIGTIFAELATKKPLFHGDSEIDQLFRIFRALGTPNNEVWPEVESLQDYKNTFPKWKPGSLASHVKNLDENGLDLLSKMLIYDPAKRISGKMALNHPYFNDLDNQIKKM
# Sequence (P14635 whole entry partner): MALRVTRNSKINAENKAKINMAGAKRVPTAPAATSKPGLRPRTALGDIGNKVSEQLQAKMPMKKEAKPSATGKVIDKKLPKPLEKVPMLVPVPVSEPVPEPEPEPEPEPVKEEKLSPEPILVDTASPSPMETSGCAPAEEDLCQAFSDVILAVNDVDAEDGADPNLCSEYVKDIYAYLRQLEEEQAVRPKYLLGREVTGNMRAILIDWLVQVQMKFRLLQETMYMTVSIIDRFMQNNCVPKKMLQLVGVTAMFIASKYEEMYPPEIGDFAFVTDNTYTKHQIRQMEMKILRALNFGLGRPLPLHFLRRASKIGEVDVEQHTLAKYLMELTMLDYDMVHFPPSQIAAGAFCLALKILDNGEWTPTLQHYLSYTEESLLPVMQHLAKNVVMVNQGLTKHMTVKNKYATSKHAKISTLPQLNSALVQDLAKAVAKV
# procedure.text: CDK1/Cyclin B1 Biochemical Assay (TR-FRET), 1 mM ATP
# condition.set: 0.15 μM Rb (Ser780)-biotin substrate, pH7.0, 60 min preincubation, 90 min reaction, room temperature
metric.name: IC50 (µM)
Numeric only. Scale: µM

A selection of reference data follows.
compound="O=C(NC12CCC(O)(CC1)CC2)O[C@H]1CC[C@@H](c2cc(Nc3cc4c(cc3F)S(=O)(=O)NC4)n[nH]2)C1 (relative stereo) [Example 457]" metric_name=IC50 observed_value=1.11
compound="CC1(NC(=O)O[C@H]2CC[C@@H](c3cc(Nc4cc5c(cc4F)S(=O)(=O)NC5)n[nH]3)C2)COC1 (relative stereo) [Example 451]" metric_name=IC50 observed_value=7.05

// next item, IC50 requested
Requested read-out: IC50. Entry: CC(C)NC(=O)O[C@H]1CC[C@@H](c2cc(Nc3ccc4c(c3F)CS(=O)(=O)N4CC(C)(C)O)n[nH]2)C1 (single isomer, unassigned) [Example 254a]
3.74

###

# target.under.test: CDK2/Cyclin E1 (Homo sapiens)
# procedure.text: CDK2/Cyclin E1 Biochemical Assay (TR-FRET), 1 mM ATP
# condition.set: 0.15 μM Rb (Ser780)-biotin substrate, pH7.0, 60 min preincubation, 90 min reaction, room temperature
Consider the cut-off 40 nM. If the recorded IC50 is strictly smaller, the label is Satisfied; if not, the label is Not satisfied.

Observe how each entry below is paired with its result.
compound="[2H]C([2H])([2H])N1c2ccc(Nc3cc([C@@H]4CC[C@H](OC(=O)NC56CC(C5)C6)C4)[nH]n3)cc2CS1(=O)=O (relative stereo)" category=Satisfied
compound="O=C(NC1CCOC1)O[C@H]1CC[C@@H](c2cc(Nc3ccc4c(c3F)CS(=O)(=O)N4)n[nH]2)C1 (relative stereo)" category="Not satisfied"
compound="CC(C)NC(=O)O[C@@H]1CC[C@H](c2cc(Nc3ccc4c(c3F)CCS(=O)(=O)N4)n[nH]2)C1 (single isomer, unassigned) [Example 430a]" category=Satisfied
compound="CN1c2ccc(Nc3cc([C@@H]4CC[C@H](OC(=O)NCC5(O)CC5)C4)[nH]n3)cc2CS1(=O)=O (relative stereo)" category="Not satisfied"

Turning to the following compound.
# strict comparison: is reported IC50 < 40 nM? input = CC(C)NC(=O)O[C@H]1CC[C@@H](c2cc(Nc3ccc4c(c3F)CCS(=O)(=O)N4)n[nH]2)C1 (single isomer, unassigned) [Example 430b]
Satisfied

###

Attribute: IC50
# target.under.test: CDK1/Cyclin B1 (Homo sapiens)
# procedure.text: CDK1/Cyclin B1 Biochemical Assay (TR-FRET), 0.015 mM ATP
# condition.set: 0.15 μM Rb (Ser780)-biotin substrate, pH7.0, 60 min preincubation, 120 min reaction, room temperature
Numeric only. Scale: nM

A selection of reference data follows.
compound="CC(C)NC(=O)O[C@@H]1CC[C@H](c2cc(Nc3ccc4c(c3F)CS(=O)(=O)N4)n[nH]2)C1 (single isomer, unassigned) [Example 251a]" units_symbol=nM observed_value=74
compound="CC(C)NC(=O)O[C@H]1CC[C@@H](c2cc(Nc3ccc4c(c3F)CN(C3CCN(S(C)(=O)=O)C3)S4(=O)=O)n[nH]2)C1 (relative stereo) [Example 85]" units_symbol=nM observed_value=470

Requested read-out: IC50. Entry: CC1(NC(=O)O[C@H]2CC[C@@H](c3cc(Nc4ccc5c(c4F)CNS5(=O)=O)n[nH]3)C2)COC1 (single isomer, unassigned) [Example 164a]
364

###

# target.under.test: CDK2/Cyclin E1 (Homo sapiens)
# procedure.text: CDK2/Cyclin E1 Biochemical Assay (TR-FRET), 0.060 mM ATP
# condition.set: 0.15 μM Rb (Ser780)-biotin substrate, pH7.0, 60 min preincubation, 120 min reaction, room temperature
Attribute: IC50
Numeric only. Scale: nM

A selection of reference data follows.
molecule="COc1c(Nc2cc([C@@H]3CC[C@H](OC(=O)NC(C)C)C3)[nH]n2)ccc2c1C(C)(C)NS2(=O)=O (relative stereo)" observed_value=887
molecule="CN1Cc2c(ccc(Nc3cc([C@@H]4CC[C@H](OC(=O)NC5(C)CCOC5)C4)[nH]n3)c2F)S1(=O)=O (relative stereo)" observed_value=5.1
molecule="CCCNC(=O)O[C@H]1CC[C@@H](c2cc(Nc3cc4c(cc3F)S(=O)(=O)NC4)n[nH]2)C1 (single isomer, unassigned) [Example 42a]" observed_value=14

Requested read-out: IC50. Entry: CN1c2ccc(Nc3cc([C@@H]4CC[C@H](OC(=O)NC5(C)CCC5)C4)[nH]n3)cc2CS1(=O)=O (relative stereo)
1.3

# iterate: CC(C)NC(=O)O[C@H]1CC[C@@H](c2cc(Nc3ccc4c(c3)C(C)S(=O)(=O)N4)n[nH]2)C1 (single isomer, unassigned) [Example 384c]
1.2

# iterate: CCCNC(=O)O[C@H]1CC[C@@H](c2cc(Nc3ccc4c(c3F)C(C)(C)NS4(=O)=O)n[nH]2)C1 (relative stereo)
93

###

# target.under.test: CDK1/Cyclin B1 (Homo sapiens)
# procedure.text: CDK1/Cyclin B1 Biochemical Assay (TR-FRET), 0.015 mM ATP
# condition.set: 0.15 μM Rb (Ser780)-biotin substrate, pH7.0, 60 min preincubation, 120 min reaction, room temperature
# Protocol: CDK2/Cyclin E1 and CDK1/Cyclin B1 Biochemical Assays Compounds disclosed herein were tested for inhibition of CDK2/Cyclin E1 or CDK1/Cyclin B1 kinase in an assay based on the time-resolved fluorescence-resonance energy transfer (TR-FRET) methodology. […] Plates were incubated at room temperature for 60 minutes, and the TR-FRET signals (ex337 nm, em665 nm/620 nm) were recorded on a PHERAstar FSX plate reader (BMG Labtech). […]
metric.name: pIC50
The quantity pIC50 is defined as the negative base-10 logarithm of the molar concentration.

A selection of reference data follows.
compound="CC1(NC(=O)O[C@H]2CC[C@@H](c3cc(Nc4ccc5c(c4)NS(=O)(=O)C5)n[nH]3)C2)CC1 (relative stereo)" metric_name=pIC50 observed_value=7.74
compound="CC[C@H](C)NC(=O)O[C@H]1CC[C@@H](c2cc(Nc3ccc4c(c3)CS(=O)(=O)N4C)n[nH]2)C1 (relative stereo)" metric_name=pIC50 observed_value=7.32
compound="CC(C)NC(=O)O[C@H]1CC[C@@H](c2cc(Nc3ccc4c(c3F)CN(CC(O)CO)S4(=O)=O)n[nH]2)C1 (relative stereo)" metric_name=pIC50 observed_value=6.36

Requested read-out: pIC50. Entry: CCCNC(=O)O[C@H]1CC[C@@H](c2cc(Nc3ccc4c(c3F)CS(=O)(=O)N4C)n[nH]2)C1 (single isomer, unassigned) [Example 256b]
6.89

# iterate: CC[C@H](C)NC(=O)O[C@H]1CC[C@@H](c2cc(Nc3ccc4c(c3F)CN(C3CC3)S4(=O)=O)n[nH]2)C1 (racemic) [Example 117]
6.37

# iterate: O=C(O[C@H]1CC[C@@H](c2cc(Nc3ccc4c(c3)CS(=O)(=O)N4)n[nH]2)C1)N1CCOCC1 (relative stereo)
6.67
